The reported measurements were obtained from paper PMC3556730.

Target: 5-HT2AR (Mus musculus, UniProt P35363)
Sequence (P35363 whole entry): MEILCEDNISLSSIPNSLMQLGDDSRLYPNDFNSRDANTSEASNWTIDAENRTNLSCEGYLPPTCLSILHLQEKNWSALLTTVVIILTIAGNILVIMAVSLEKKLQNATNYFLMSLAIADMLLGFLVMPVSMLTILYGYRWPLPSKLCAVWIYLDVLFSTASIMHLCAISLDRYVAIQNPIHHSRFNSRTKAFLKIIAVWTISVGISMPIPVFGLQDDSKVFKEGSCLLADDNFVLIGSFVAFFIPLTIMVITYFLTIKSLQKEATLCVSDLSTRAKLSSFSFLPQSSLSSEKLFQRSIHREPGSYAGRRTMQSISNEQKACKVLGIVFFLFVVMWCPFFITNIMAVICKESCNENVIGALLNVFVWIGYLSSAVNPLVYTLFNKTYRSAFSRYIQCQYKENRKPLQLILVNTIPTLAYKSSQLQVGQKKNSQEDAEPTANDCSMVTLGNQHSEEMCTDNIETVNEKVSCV
Assay: [3H]Ketanserin competition binding, mouse striatum membranes
Details: read-out: Ki-high; mouse striatum; with quinpirole (10^−5 M); two-site model; mean ± SEM
pKi: −log10 of the molar value.
Value kind: pKi

INSERT INTO measurements (compound, number) VALUES
  ('COc1cc(CC(C)N)c(OC)cc1I (racemic) [DOI, (+/−)-2,5-dimethoxy-4-iodoamphetamine]', 10.19);
